- systemUnderTest: T1, SgrAI P27G (UniProt Q9F6L0 1-339, P27G)
- T1 sequence: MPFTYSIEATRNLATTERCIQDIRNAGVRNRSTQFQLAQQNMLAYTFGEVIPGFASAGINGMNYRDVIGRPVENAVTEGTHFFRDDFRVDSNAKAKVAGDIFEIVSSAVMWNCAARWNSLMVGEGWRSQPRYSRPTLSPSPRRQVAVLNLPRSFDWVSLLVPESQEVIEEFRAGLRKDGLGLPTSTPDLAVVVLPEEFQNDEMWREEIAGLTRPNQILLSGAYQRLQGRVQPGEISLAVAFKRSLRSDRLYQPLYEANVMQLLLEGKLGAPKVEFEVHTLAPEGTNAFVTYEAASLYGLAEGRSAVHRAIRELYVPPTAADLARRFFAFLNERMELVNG
- testName: fluorescence polarization anisotropy; 10 mM Ca2+; FPA: 20 mM Tris-OAc pH 8.0, 50 mM KOAc, 10 mM Ca(OAc)2, 1 mM DTT, 10% glycerol, 4 C, 1 nM DNA; native PAGE: same binding buffer, 1 uM SgrAI, 30 min at 4 C, gel
- condition: protein: recombinant; chain copies: 2; label: 5' HEX on both strands (FPA); 5' 32P (native gel); blunt; self-complementary, 2 strand copies
assayMetric: Kd (nM)
Give just the number in nM; leave the unit off.

[ask] Give the reported value of Kd for this record: 18-1 (primary site) (dsDNA) DNA 1: AAGTCCACCGGTGGACTT DNA 2: AAGTCCACCGGTGGACTT
[reply] 17
